assayed-system: Estrogen receptor (Homo sapiens) (UniProt P03372)
assay-details: Displacement of [3H]estradiol from human full length estrogen receptor alpha by competitive radiometric assay relative to estradiol
assay-endpoint: relative binding affinity (RBA)

(P) C[C@]12CC[C@H](c3ccc(O)cc3)C[C@@H]1CC[C@@H]2O
(Q) C[C@]12CC[C@@H](c3ccc(O)cc3)C[C@H]1CC[C@H]2O
Request: When their relative binding affinity (RBA) values are compared, which is larger, P or Q ? Provide the label of your selected option as the answer.
Result: P

(I) C[C@]12CC[C@]3(C[C@H]1CC[C@@H]2O)OCc1cc(O)ccc13
(II) C[C@]12CC[C@@]3(CCc4cc(O)ccc43)C[C@@H]1CC[C@@H]2O
(III) C[C@]12CC[C@@]3(CCCc4cc(O)ccc43)C[C@H]1CC[C@@H]2O
(IV) C[C@]12CC[C@]3(C[C@H]1CC[C@@H]2O)OCCc1cc(O)ccc13
(V) C[C@]12CC[C@]3(CCCc4cc(O)ccc43)C[C@H]1CC[C@H]2O
Request: Order these by relative binding affinity (RBA), descending, and give the full ranking. # respond with the labels, arranged in the requested order
Result: III, I, II, IV, V
(III: 3.7, I: 2.46, II: 0.98, IV: 0.31, V: 0.05)

###

assayed-system: Estrogen receptor beta (Homo sapiens)
assay-details: Displacement of [3H]estradiol from human full length estrogen receptor beta by competitive radiometric assay relative to estradiol
assay-endpoint: relative binding affinity (RBA)

Solved entries (count: 5):
C[C@]12CC[C@]3(CCc4cc(O)ccc43)C[C@@H]1CC[C@@H]2O; 0.23
C[C@]12CC[C@]3(C[C@H]1CC[C@@H]2O)OCCc1cc(O)ccc13; 3.47
C[C@]12CC[C@]3(CCc4cc(O)ccc43)C[C@H]1CC[C@H]2O; 0.37
C[C@]12CC[C@@H](c3ccc(O)cc3)C[C@H]1CC[C@H]2O; 0.59
C[C@]12CC[C@@]3(C[C@H]1CC[C@H]2O)OCc1cc(O)ccc13; 0.02

(P) C[C@]12CC[C@]3(C[C@H]1CC[C@@H]2O)OCc1cc(O)ccc13
(Q) C[C@]12CC[C@]3(CCCc4cc(O)ccc43)C[C@H]1CC[C@H]2O
(R) C[C@]12CC[C@@]3(CCc4cc(O)ccc43)C[C@@H]1CC[C@@H]2O
(S) C[C@]12CC[C@]3(C[C@H]1CC[C@@H]2O)OC(=O)c1cc(O)ccc13
Request: Order these by relative binding affinity (RBA), descending, and give the full ranking. # respond with the labels, arranged in the requested order
Result: P, S, R, Q
(P: 9.05, S: 6.07, R: 2.43, Q: 0.16)

(1) C[C@]12CC[C@H](c3ccc(O)cc3)C[C@@H]1CC[C@@H]2O
(2) C[C@]12CC[C@@]3(CCc4cc(O)ccc43)C[C@H]1CC[C@@H]2O
Request: When their relative binding affinity (RBA) values are compared, which is larger, 1 or 2 ? Provide the label of your selected option as the answer.
Result: 2

###

assayed-system: UniProt:P03372
Sequence (whole entry): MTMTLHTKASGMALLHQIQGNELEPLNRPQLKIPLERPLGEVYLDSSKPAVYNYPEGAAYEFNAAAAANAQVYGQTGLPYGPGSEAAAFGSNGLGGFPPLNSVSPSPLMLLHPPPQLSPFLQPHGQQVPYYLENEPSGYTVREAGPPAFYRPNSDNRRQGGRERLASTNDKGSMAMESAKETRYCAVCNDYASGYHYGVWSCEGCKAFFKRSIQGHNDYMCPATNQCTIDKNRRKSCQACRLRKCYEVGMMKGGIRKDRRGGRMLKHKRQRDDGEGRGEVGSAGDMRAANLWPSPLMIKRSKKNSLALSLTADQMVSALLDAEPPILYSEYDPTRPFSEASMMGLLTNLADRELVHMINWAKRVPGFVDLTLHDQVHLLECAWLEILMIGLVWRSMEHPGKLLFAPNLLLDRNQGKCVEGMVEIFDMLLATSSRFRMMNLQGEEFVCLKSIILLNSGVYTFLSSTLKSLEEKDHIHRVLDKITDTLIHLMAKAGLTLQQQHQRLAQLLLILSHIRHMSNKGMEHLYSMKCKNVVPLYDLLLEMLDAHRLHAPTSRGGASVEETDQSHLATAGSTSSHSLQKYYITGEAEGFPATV
assay-details: Displacement of [3H]estradiol from human full length estrogen receptor alpha by competitive radiometric assay relative to estradiol
assay-endpoint: relative binding affinity (RBA)

C[C@]12CC[C@]3(CCc4cc(O)ccc43)C[C@@H]1CC[C@@H]2O; 0.12

(A) C[C@]12CC[C@]3(CCc4cc(O)ccc43)C[C@H]1CC[C@H]2O
(B) C[C@]12CC[C@@]3(C[C@H]1CC[C@H]2O)OCc1cc(O)ccc13
(C) C[C@]12CC[C@]3(C[C@H]1CC[C@@H]2O)OC(=O)c1cc(O)ccc13
(D) C[C@]12CC[C@@]3(CCc4cc(O)ccc43)C[C@H]1CC[C@@H]2O
Request: Order these by relative binding affinity (RBA), descending, and give the full ranking. # respond with the labels, arranged in the requested order
Result: D, C, A, B
(D: 6.4, C: 1.98, A: 0.34, B: 0.014)
